Items are presented alongside their recorded stoichiometry N.
# measurement target: the molecule itself
# assay text: SEC-MALS
Number only, no unit.

May I ask what stoichiometry N has been recorded for NosRcaΔC (NosRca lacking the C-terminal 123 residues: linker and SSUL domain) (domain or fragment, Nostoc sp. PCC 7120, UniProt P58555 2-291, looked up) SYYIAPRFLDKLAVHITKNFLNIPGVRVPLILGIHGRKGEGKTFQCELAFEKMGIEVTLISGGELESPDAGDPARLIRLRYRETAELIKVRGKMCVLMINDLDAGAGRFDEGTQYTVNTQLVNATLMNIADNPTDVQLPGSYDSNPIRRVPIIVTGNDFSTLYAPLIRDGRMEKFYWEPNRDDKVGIVGGIFAEDGLSQREIEQLVDTFPKQSIDFFSALRSRIYDIQIRDFIHKVGFERISLRVVNSLEAPPEFKKPDFSLAHLIESGNLVLGEQQRVDNSQLVDEYNR ?
6

May I ask what stoichiometry N has been recorded for NosRcaΔC P140G/Y143A/D144A (domain or fragment, Nostoc sp. PCC 7120, UniProt P58555 2-291, looked up) SYYIAPRFLDKLAVHITKNFLNIPGVRVPLILGIHGRKGEGKTFQCELAFEKMGIEVTLISGGELESPDAGDPARLIRLRYRETAELIKVRGKMCVLMINDLDAGAGRFDEGTQYTVNTQLVNATLMNIADNPTDVQLGGSAASNPIRRVPIIVTGNDFSTLYAPLIRDGRMEKFYWEPNRDDKVGIVGGIFAEDGLSQREIEQLVDTFPKQSIDFFSALRSRIYDIQIRDFIHKVGFERISLRVVNSLEAPPEFKKPDFSLAHLIESGNLVLGEQQRVDNSQLVDEYNR ?
6

Okay, now this protein:
May I ask what stoichiometry N has been recorded for NosRcaΔC V91E/R92G/G93N (domain or fragment, Nostoc sp. PCC 7120, UniProt P58555 2-291, looked up) SYYIAPRFLDKLAVHITKNFLNIPGVRVPLILGIHGRKGEGKTFQCELAFEKMGIEVTLISGGELESPDAGDPARLIRLRYRETAELIKEGNKMCVLMINDLDAGAGRFDEGTQYTVNTQLVNATLMNIADNPTDVQLPGSYDSNPIRRVPIIVTGNDFSTLYAPLIRDGRMEKFYWEPNRDDKVGIVGGIFAEDGLSQREIEQLVDTFPKQSIDFFSALRSRIYDIQIRDFIHKVGFERISLRVVNSLEAPPEFKKPDFSLAHLIESGNLVLGEQQRVDNSQLVDEYNR ?
6

Source listed as paper doi:10.1101/2020.05.16.099382.
